Measurement Target: 5-hydroxytryptamine receptor 1B (Homo sapiens)
Condition Notes: Compound concentration 10 µM; call rule not given here
Choose one outcome from this list and give only that: active, inactive

Reference set (3 entries):
Query :: Query: recorded result category for Cc1c(C(=O)NC2CCCCC2)sc2nc3ccc(N)cc3n12 in this test
Result :: inactive

Query :: Test call, this compound: COC(=O)C1=C(C)NC(C)=C(C(=O)OCCCN2CCC(c3ccccc3)(c3ccccc3)CC2)[C@H]1c1cccc([N+](=O)[O-])c1
Result :: active

Query :: I'd appreciate the recorded outcome for CCCCN(CC)c1nc(C)nc2c1c(C)cn2-c1c(C)cc(C)cc1C from this test.
Result :: inactive

Further cases:
Query :: Answer briefly: the call reported for COc1cc2c(CCNC(C)=O)c[nH]c2cc1Cl in this assay.
Result :: inactive

###

Measurement Target: Histamine H3 receptor (Homo sapiens) (UniProt Q9Y5N1)
Sequence (Q9Y5N1 whole entry): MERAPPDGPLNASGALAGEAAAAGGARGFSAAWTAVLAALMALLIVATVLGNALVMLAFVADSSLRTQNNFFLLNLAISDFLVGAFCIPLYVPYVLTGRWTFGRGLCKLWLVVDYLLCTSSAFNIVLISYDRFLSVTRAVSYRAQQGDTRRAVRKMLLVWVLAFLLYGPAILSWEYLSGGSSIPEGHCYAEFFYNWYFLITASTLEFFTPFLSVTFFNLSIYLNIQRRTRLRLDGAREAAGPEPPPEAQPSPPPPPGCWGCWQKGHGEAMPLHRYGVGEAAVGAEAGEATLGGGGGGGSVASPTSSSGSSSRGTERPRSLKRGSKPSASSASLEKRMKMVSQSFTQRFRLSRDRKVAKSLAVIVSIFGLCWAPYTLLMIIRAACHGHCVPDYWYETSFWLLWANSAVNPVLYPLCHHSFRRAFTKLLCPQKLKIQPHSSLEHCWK
Condition Notes: Compound concentration 10 µM
Description: PDSP Primary Binding target: HRH3 - Compounds are tested at 10 uM concentration, plate are incubated at room temperature in the dark for 90 minutes. Reaction are stopped by vacuum filtration onto 0.3% polyethyleneimine soaked filter mats using Filtermate harvester. Scintilation cocktail is then melted onto microwave-dried filters on a hot plate and the radio activity is counted in Microbia counter.
The following compounds are listed with their measured inhibition values.
Answer format: numeric, % implied, no suffix.

Worked examples follow.
Query :: Recorded inhibition for C=CCN1C[C@H](C)N([C@H](c2ccc(C(=O)N(CC)CC)cc2)c2cccc(O)c2)C[C@H]1C with Histamine H3 receptor (Homo sapiens) (UniProt Q9Y5N1), please?
Result :: 0.95

Query :: Lab request: please report inhibition under test system Histamine H3 receptor (Homo sapiens) (UniProt Q9Y5N1) for CO[C@@H]1COCC[C@@H]1N[C@@H]1CC[C@@](C(=O)N2CCc3ncc(C(F)(F)F)cc3C2)(C(C)C)C1
Result :: 4.46

Query :: Histamine H3 receptor (Homo sapiens) (UniProt Q9Y5N1) / inhibition / Cc1ccc(O)c([C@H](CCN(C(C)C)C(C)C)c2ccccc2)c1 : value?
Result :: 4.65

Query :: Query the reported inhibition for Histamine H3 receptor (Homo sapiens) (UniProt Q9Y5N1); item: OC[C@H]1O[C@@H](n2cnc3c(NC4CCCC4)ncnc32)[C@H](O)[C@@H]1O
Result :: 7.78

Could you now consider this next compound?
Query :: Provide value of inhibition for this record tested with Histamine H3 receptor (Homo sapiens) (UniProt Q9Y5N1): N#Cc1c[nH]c2c(C(=O)N3CCN(CCc4ccc(F)cc4)CC3)cccc12
Result :: -0.43

###

Measurement Target: 5-hydroxytryptamine receptor 1B (Homo sapiens)
Condition Notes: Compound concentration 10 µM; call rule not given here
// one of true (1) for active, false (0) for inactive, no free text

The examples below pair each entry with its known result.
Query :: For this molecule, state the assay outcome: COc1ccc2cc(S(=O)(=O)N[C@H](CC(=O)N[C@H](Cc3ccc(CN4[C@H](C)CCC[C@@H]4C)cc3)C(=O)N(C)C(C)C)c3ccc4c(c3)OCO4)ccc2c1
Result :: false (0)

Query :: Entry O=C(O)COc1cccc(CN(Cc2ccc(-n3cccn3)cc2)S(=O)(=O)c2cccnc2)c1 : call = ?
Result :: false (0)

Next:
Query :: Given CCCCCNC(=N)N/N=C/c1c[nH]c2ccc(OC)cc12 , state the outcome it received in this test.
Result :: true (1)

Query :: Per the assay record, what outcome was assigned to COc1cc(-n2cnc3cc(-c4ccc(Cl)cc4)sc3c2=O)ccc1OCCN1CCCC1 ?
Result :: false (0)

Query :: Hey, what did the test say about CCCCCNC(=O)NS(=O)(=O)c1cc([N+](=O)[O-])ccc1NC1CCCCC1 ?
Result :: false (0)

Query :: Tell me the recorded outcome of this test for S=C(NCCCc1c[nH]cn1)NCCCN(Cc1ccc(Cl)c(Cl)c1)c1ccc(Br)cn1 .
Result :: true (1)

Query :: Could you check what this test reported for COc1ccc(NC(=O)c2ccc(-c3ccc(-c4noc(C)n4)cc3C)cc2)cc1OCCN(C)C ?
Result :: true (1)
